molecular target: human CD3 (human, UniProt P07766 23-126); experiment: Octet
Sequence (P07766 23-126 limits assumed): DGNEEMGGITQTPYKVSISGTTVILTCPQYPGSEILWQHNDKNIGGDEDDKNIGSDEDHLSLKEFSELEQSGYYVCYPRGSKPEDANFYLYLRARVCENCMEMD
Below, each of the binders is paired with its reported Kd value.

Worked cases, Kd given:
binder: AC3768 (CD3.23 control) (scFv, V domains shown, Pool 3 format (remarks)) VH: EVQLLESGGGIVQPGGSLKLSCAASGFTFNTYAMNWVRQAPGKGLEWVARIRSKYNNYATYYADSVKDRFTISRDDSKNTVYLQMNNLKTEDTAVYYCVRHENFGNSYVSWFAHWGQGTLVTVSS VL: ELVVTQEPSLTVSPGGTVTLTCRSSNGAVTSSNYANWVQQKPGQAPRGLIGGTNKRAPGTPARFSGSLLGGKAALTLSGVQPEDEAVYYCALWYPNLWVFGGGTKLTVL
Kd: 4.67 nM

binder: AC3799 (CD3.295) (scFv, V domains shown, Pool 3 format (remarks)) VH: EVQLVESGGGIVQPGGSLRLSCAASGFTFSTYAMNWVRQAPGKGLEWVGRIRTKRNNYATYYADSVKGRFTISRDDSKNTVYLQMNSLKTEDTAVYYCVRHENFGNSYVSWFAHWGQGTLVTVSS VL: ELVVTQEPSLTVSPGGTVTLTCRSSNGAVTSSNYANWVQQKPGQAPRGLIGGTNKRAPGTPARFSGSLNGGKAALTLSGVQPEDEAVYYCALWYPNLWVFGGGTKLTVL
Kd: 3.11 nM

binder: AC3822 (CD3.318) (scFv, V domains shown, Pool 3 format (remarks)) VH: EVQLVESGGGIVQPGGSLRLSCAASGFTFSTYAMNWVRQAPGKGLEWVGRIRTKRNDYATYYADSVKGRFTISRDDSKNTLYLQMNSLKTEDTAVYYCVRHENFGNSYVSWFAHWGQGTLVTVSS VL: ELVVTQEPSLTVSPGGTVTLTCRSSNGAVTSSNYANWVQQKPGQAPRGLIGGTNKRAPGTPARFSGSLLEGKAALTLSGVQPEDEAVYYCALWYPNLWVFGGGTKLTVL
Kd: 5.38 nM

We next turn to a different binder, shown below.
**Query** Could you tell me which Kd is on file for AC3796 (CD3.292) (scFv, V domains shown, Pool 3 format (remarks)) VH: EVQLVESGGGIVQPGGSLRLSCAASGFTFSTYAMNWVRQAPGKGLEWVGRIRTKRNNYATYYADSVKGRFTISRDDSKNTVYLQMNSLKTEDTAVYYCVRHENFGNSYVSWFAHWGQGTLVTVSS VL: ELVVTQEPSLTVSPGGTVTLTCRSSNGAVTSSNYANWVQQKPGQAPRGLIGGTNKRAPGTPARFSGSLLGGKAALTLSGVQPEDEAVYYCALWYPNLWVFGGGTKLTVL ?
**Result** 3.89 nM
